# Tested on: HL-60
# assay.text: NCI tumour cell line growth inhibition, 48 h
Activity calls are given as the source filed them. Rule as the data show it: active = GI50 up to about 1.1 µM and inactive = higher.
I would appreciate it if you answered using one of these outcomes: 1 (yes) for active, 0 (no) for inactive

Q) What did the test return for COC(=O)C1Cc2c([nH]c3ccccc23)C(c2ccccc2O)N1Cc1ccccc1 (centres undefined) ?
A) 0 (no)

Q) What did the test return for "Cc1nc2nc3c(ncn3COCCO)c(O)n2c1C(c1ccccc1)(c1ccccc1)c1ccccc1" ?
A) 0 (no)

Q) What did the test return for OC1(c2ccccc2)OC(C#Cc2ccccc2)(c2ccccc2)c2ccccc21 (centres undefined) ?
A) 0 (no)

Q) What did the test return for "CSc1ccc(/C=C2/C[N+](C)(C)C/C(=C/c3ccc(SC)cc3)C2=O)cc1" ?
A) 0 (no)

Q) What did the test return for "O=C1/C(=C/c2ccc(Cl)cc2)N=C(c2ccccc2)N1c1ccc(S(=O)(=O)Nc2nccs2)cc1" ?
A) 0 (no)

Q) What did the test return for Nc1ccc2c(c1)N(C(=O)CCCC(=O)N1CC(CCl)c3ccc(N)cc31)CC2CCl (centres undefined) ?
A) 1 (yes)

Q) What did the test return for C=CCC(C(=O)O)c1ccccc1 (centres undefined) ?
A) 0 (no)

Q) What did the test return for "O=c1[nH]/c(=C/c2ccc(OCc3ccccc3)cn2)c(=O)[nH]/c1=C/c1ccc(F)cc1" ?
A) 1 (yes)

Q) What did the test return for "CCOC(CN(C)C(=O)Nc1cccc2ccccc12)OCC" ?
A) 0 (no)
